Target: ERAlpha receptor (PanVera) (Homo sapiens)
Sequence (P03372 1-595): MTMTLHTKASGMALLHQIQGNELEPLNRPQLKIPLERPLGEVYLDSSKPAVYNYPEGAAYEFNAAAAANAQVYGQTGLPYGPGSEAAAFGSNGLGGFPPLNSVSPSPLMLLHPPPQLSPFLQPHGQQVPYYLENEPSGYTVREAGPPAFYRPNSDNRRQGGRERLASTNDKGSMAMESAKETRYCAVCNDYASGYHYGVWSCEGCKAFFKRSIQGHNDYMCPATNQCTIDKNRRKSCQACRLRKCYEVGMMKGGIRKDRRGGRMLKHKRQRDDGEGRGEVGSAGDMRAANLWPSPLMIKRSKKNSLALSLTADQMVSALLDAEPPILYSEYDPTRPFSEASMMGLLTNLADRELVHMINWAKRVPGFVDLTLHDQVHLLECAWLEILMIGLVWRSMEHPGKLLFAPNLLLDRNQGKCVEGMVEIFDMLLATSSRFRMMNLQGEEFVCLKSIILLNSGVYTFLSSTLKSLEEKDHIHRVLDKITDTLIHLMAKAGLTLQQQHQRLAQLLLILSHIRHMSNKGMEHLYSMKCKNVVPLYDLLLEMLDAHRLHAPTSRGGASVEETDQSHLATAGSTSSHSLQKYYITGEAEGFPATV
Where a name gives a salt, the structure may show the parent alone.
Experimental readout: Ki (nM)

[
  {
    "Molecule": "Cl.Oc1ccc2c3c(ccc2c1)-c1ccc(F)cc1COC3c1ccc(OCCN2CCCCC2)cc1 (single isomer, unassigned) [Example 8, hydrochloride salt]",
    "Experimental readout": "Ki",
    "Value": 0.7
  },
  {
    "Molecule": "Cl.Oc1ccc2c3c(ccc2c1)-c1ccc(F)cc1COC3c1ccc(OCCN2CCCCC2)cc1 (single isomer, unassigned) [Example 9, hydrochloride salt]",
    "Experimental readout": "Ki",
    "Value": 62
  },
  {
    "Molecule": "Oc1ccc2c3c(sc2c1)-c1ccccc1COC3c1ccc(OCCN2CCCCC2)cc1 (stereo not shown) [Example 2]",
    "Experimental readout": "Ki",
    "Value": 2.9
  },
  {
    "Molecule": "Oc1ccc2c3c(ccc2c1)-c1ccccc1COC3c1ccc(OCCN2CCCCC2)cc1 (stereo not shown) [Example 4, trifluoroacetate]",
    "Experimental readout": "Ki",
    "Value": 2.6
  }
]
